Measured EC50 growth inhibition of individual entries
# Tested Target: Toxoplasma gondii RH tachyzoites
# Test Protocol: EC50 growth inhibition (48 h luciferase)
Readout Label: EC50 growth inhibition

In [3]: df
Out[3]:
                                   compound   result
0  CCOc1ccc(-n2cc(-c3ccccc3)c3c(SCc4cc(C)ccc4C)ncnc32)cc1  3170 nM
1  COc1ccc(C2c3ccc4ccccc4c3Oc3ncn(CCCN(C)C)c(=N)c32)cc1 (stereo not given)  2650 nM
2  COc1ccc(-c2nonc2NC(=O)c2cccc(Cl)c2)cc1OC  35.3 nM
3  COCCN(C(=O)Cc1cccs1)C(C(=O)NCc1ccc(OC)cc1)c1ccc(C(C)C)cc1 (stereo not given)  2420 nM
4  COc1ccc(C2NCCc3c2[nH]c2ccccc32)cc1CN1CCN(c2ccc(F)cc2)CC1 (stereo not given)  4880 nM
5  CC(C)(C)CC(C)(C)NCC(O)COc1ccc(Cl)cc1Cl (stereo not given)  2050 nM
6  O=C(Nc1ccccc1O)c1ccc(Oc2cccc(C(=O)Nc3ccccc3O)c2)cc1  1670 nM
7            CCN(CC)c1ccc(NC(=O)c2cccs2)cc1  1650 nM
8  CSC1=NC(=Nc2c(C)cccc2C)C2(CCC(C(C)(C)C)CC2)N1c1ccc(Cl)cc1 (stereo not given)   775 nM
9  CCOC(=O)C1=CN(C)C=C(C(=O)OCC)C1c1cc(Br)c(OCC)c(OC)c1  2590 nM

* * *

Measured log10(EC50 growth inhibition) of individual entries
# Tested Target: Toxoplasma gondii RH tachyzoites
# Test Protocol: EC50 growth inhibition (48 h luciferase)
Readout Label: log10(EC50 growth inhibition) (log10 of the value in µM)

>>> print(df.to_string())
                                    molecule                     tested_target  result_number
 0  COc1cc(-c2nc(-c3ccc(Sc4ccccc4)cc3)c(-c3ccccc3)[nH]2)cc(OC)c1O  Toxoplasma gondii RH tachyzoites           0.12
 1        CCOc1ccc(Nc2c3ccccc3nc3ccccc23)cc1  Toxoplasma gondii RH tachyzoites          -0.05
 2           Cc1ccc(NC(=O)Nc2cccc(Cl)c2)cc1F  Toxoplasma gondii RH tachyzoites           0.21
 3  CCOC(=O)c1c(C)n(-c2ccccc2)c2ccc(OC(=O)c3cc(OC)c(OC)c(OC)c3)cc12  Toxoplasma gondii RH tachyzoites           0.80
 4  COc1ccc(C2Sc3ccccc3N=C3C2=C(O)c2ccccc23)cc1 (centres undefined)  Toxoplasma gondii RH tachyzoites          -0.02
 5        COc1ccc2nc(C)cc(Nc3ccc(Cl)cc3)c2c1  Toxoplasma gondii RH tachyzoites          -0.25
 6             CN(C)CCCNc1c2ccccc2nc2ccccc12  Toxoplasma gondii RH tachyzoites           0.17
 7  CCCCCCn1c(=N)n(CC(O)COc2cccc(C)c2)c2ccccc21 (centres undefined)  Toxoplasma gondii RH tachyzoites           0.32
 8   Cc1ccc2nc(C)cc(Nc3cccc(C(F)(F)F)c3)c2c1  Toxoplasma gondii RH tachyzoites          -0.33
 9       Cc1cc(Nc2cccc(F)c2)nc(NCc2ccccc2)n1  Toxoplasma gondii RH tachyzoites          -0.06
10           Oc1ccc(Cl)cc1CNc1nc2ccccc2[nH]1  Toxoplasma gondii RH tachyzoites           0.12
11  COc1cccc(NC(=O)Cn2c(C)c(C#N)c3ccccc32)c1  Toxoplasma gondii RH tachyzoites          -0.04
12  c1ccc2c(NCCc3c[nH]c4ccccc34)c3ccccc3nc2c1  Toxoplasma gondii RH tachyzoites          -0.77
13  CC1CC2=C(CC1CNCCCN(C)C)C(C)(C)CCC2 (centres undefined)  Toxoplasma gondii RH tachyzoites           0.50
14  COc1ccccc1N1C(=N)SC(=Cc2ccc(OCc3ccccc3F)cc2)C1=O  Toxoplasma gondii RH tachyzoites          -0.01
15  Cc1ccccc1OCCSc1nc2ccc(NC(=O)c3cccs3)cc2s1  Toxoplasma gondii RH tachyzoites           0.06
16      COc1ccc(Nc2cc(C)nc(NCc3ccccc3)n2)cc1  Toxoplasma gondii RH tachyzoites          -0.19
17   O=C(Nc1ccc(N2CCCCC2)c(Cl)c1)c1ccc(Br)o1  Toxoplasma gondii RH tachyzoites           0.87
18       CN(C)CCCNCc1ccc(-c2ccc(F)c(Cl)c2)o1  Toxoplasma gondii RH tachyzoites           0.22
19  O=C(Nc1ccc(N2CCN(Cc3ccccc3)CC2)cc1)c1cccs1  Toxoplasma gondii RH tachyzoites          -0.74
20       CCOC(=O)c1cnc2ccc(Cl)cc2c1NCCCN(C)C  Toxoplasma gondii RH tachyzoites           0.37
21    COc1cc2c(cc1OC)C1=NNC(=O)C1=NC(C)(C)C2  Toxoplasma gondii RH tachyzoites           0.51
22  O=C(NCC1Cc2cccc(-c3ccncc3)c2O1)c1csc2c1CCCC2 (centres undefined)  Toxoplasma gondii RH tachyzoites          -0.07
23  O=C(Nc1ccc(Cl)cc1C(=O)Nc1ccncc1)c1ccc(Cl)cc1Cl  Toxoplasma gondii RH tachyzoites           0.60

* * *

Measured % growth inhibition of individual entries
# Tested on: Toxoplasma gondii RH tachyzoites
# Test Protocol: % growth inhibition vs DMSO (48 h luciferase); higher = more inhibition
# Measurement Context: 10 µM
Readout Label: % growth inhibition (%)

                                    molecule  operator_symbol  result_number
 0       CC(=O)c1sc(NC(=O)Nc2ccc(C)cc2C)nc1C                =           67.5
 1  CC(C)CCNCC(O)Cn1c2ccccc2c2ccccc21 (centres undefined)                =           77.4
 2  COc1ccc(-c2cc3c(SCC(=O)Nc4cc(C(F)(F)F)ccc4Cl)nccn3n2)cc1                <              0
 3  Cc1ccc(-c2cc3c(SCC(=O)Nc4cc(C(F)(F)F)ccc4Cl)nccn3n2)cc1                =           48.6
 4  COc1ccc(C(=O)Nc2nonc2-c2ccc(OC)c(OC)c2)cc1Cl                =           1.09
 5  O=C(NC1CCN(Cc2ccccc2)CC1)c1cc(-c2cccnc2)nc2ccc(Cl)cc12                =           19.7
 6  COc1ccc(CCn2c(=N)c(C(=O)NCc3cccnc3)cc3c(=O)n4cccc(C)c4nc32)cc1                =           75.9
 7  COc1ccc(-c2nonc2NC(=O)c2cccc(Cl)c2)cc1OC                =           84.3
 8    O=C(c1ccccc1F)N(Cc1ccc(Cl)cc1)c1ccccn1                =           82.2
 9  COc1ccc(C2C(C(=O)Nc3cccc(OC)c3)c3ccccc3C(=O)N2C2CCCCC2)cc1 (centres undefined)                =           13.5
10  COc1ccc(C(=O)C(CCC(CNC(C)(C)C)C(=O)c2ccc(OC)cc2)CNC(C)(C)C)cc1 (centres undefined)                =           89.2
11  COc1cccc(NC(=O)Cn2c(C)c(C#N)c3ccccc32)c1                =           94.4
12     COc1ccc(-c2cc3c(nn2)-c2ccccc2C3=O)cc1                <              0
13        COc1ccc2nc(C)cc(Nc3ccc(Cl)cc3)c2c1                =           99.3
14  COc1ccc(-n2ccnc2SCC(=O)Nc2cc(C)ccc2C)c(OC)c1                <              0
15      Cc1ccc(-c2cc3nc4c(c(O)n3n2)CCCC4)cc1                <              0
16         Oc1ccc2ccccc2c1CNc1nc2ccccc2[nH]1                =           95.1
17  O=C(NCc1ccco1)C1CCN(S(=O)(=O)c2ccc(Br)cc2)CC1                =           52.8
18  COc1ccc(C(=O)NC(c2ccc(Cl)cc2Cl)c2cc(Cl)c3cccnc3c2O)cc1 (centres undefined)                =           32.1
19  Oc1ccccc1CN1CCC2(CCCN(Cc3ccccc3F)C2)C1 (centres undefined)                <              0
20   Cc1cc(Nc2ccc(Cl)cc2)n2nc(C(F)(F)F)nc2n1                =           62.7
21  CC1CCCCN1CCCNC(=O)c1ccc2c(c1)sc1nc(-c3ccc(F)cc3)cn12 (centres undefined)                =           48.7
22  COc1ccc2c(c1)C1(Nc3ccccc3-c3nc4ccccc4n31)C(=O)N2 (centres undefined)                =           47.3
23  Cc1cc(NC(=O)C2c3ccccc3C(=O)N(CC(C)C)C2c2cccs2)no1 (centres undefined)                <              0
24  Nc1ccc(-c2nc3cc(Oc4ccc(Oc5ccc6[nH]c(-c7ccc(N)cc7)nc6c5)cc4)ccc3[nH]2)cc1                =            100
25  CCOC(=O)C1(Cc2ccccc2)CCN(Cc2cccc(OC)c2O)CC1                =           1.84
26     COc1ccccc1C(=O)ON=C(N)Cc1cccc2ccccc12                =           73.6
27          CCc1ccc(Nc2cc(C)nc3nc(C)nn23)cc1                <              0
28  CCN(CC)S(=O)(=O)c1ccc(-c2csc(Nc3ccc(C)c(C)c3)n2)cc1                =           71.8
29  CCOc1cc(Cl)c(C(C)NC(=O)c2cccc(OC)c2)cc1OCC (centres undefined)                <              0
30  COc1ccc(CCN2C(=O)c3[nH]nc(-c4cc(Cl)c(C)cc4O)c3C2c2ccccc2F)cc1 (centres undefined)                <              0
31                CCCCc1c(C)nc2c(OC)cccc2c1O                =            9.6
32  O=C(Nc1ccc(-c2nc3ccccc3[nH]2)cc1)c1ccc(Cl)c(Cl)c1                =           7.15
33  O=C1CC(O)(C(F)(F)C(F)(F)F)Oc2ccccc21 (centres undefined)                =           65.3
34  O=C(NC(c1ccccc1)c1ccc2cccnc2c1O)c1ccccc1 (centres undefined)                =           99.7
35      CN(C)c1ccc(C=Cc2nc(=O)c3ccccc3o2)cc1                =           99.1
36   O=C(Nc1ccccc1O)c1ccc(-c2ccc(Cl)cc2Cl)o1                =           23.8
37                    C=CCc1c(C)nc2ccccc2c1O                =           72.7
38  CC(C)c1ccc(CNCC(O)c2ccccc2)cc1 (centres undefined)                =           10.5
39       CN(C)CCCNCc1ccc(-c2ccc(F)c(Cl)c2)o1                =           92.8
40          COc1nc(Nc2ccc(C(C)C)cc2)nc(OC)n1                <              0
41  Cc1c(C)n(Cc2ccc(F)cc2)c2ccc(C(=O)NCc3ccco3)cc12                <              0
42  COc1cc(OC)c(N(C)C(=O)c2cc3c(s2)-c2ccccc2S(=O)(=O)C3)cc1Cl                <              0
43  Cc1cc(NC(=O)c2cccc(C(F)(F)F)c2)n(-c2nc(-c3ccc4c(c3)OCO4)cs2)n1                <              0

These entries and their values trace back to the supplement of paper PMC5770543.
